The measured values listed here are drawn from patent US20210061908A1.

Parameter percentage binding: see the listing below.
target: CL-11 (C); experiment: FACS on CL-11 cells (do not express IGSF11; negative cell line) treated with IGSF11 siRNA (KD)
Entry format: amount then unit.

BINDER	MEASURED_PARAMETER	TEST_RESULT
A-006 (human IgG1 format) (antibody, V domains shown, human IgG1 format) VH: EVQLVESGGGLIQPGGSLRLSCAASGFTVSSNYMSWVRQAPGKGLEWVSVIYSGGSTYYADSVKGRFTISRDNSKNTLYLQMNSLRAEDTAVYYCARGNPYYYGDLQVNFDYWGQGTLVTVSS VL: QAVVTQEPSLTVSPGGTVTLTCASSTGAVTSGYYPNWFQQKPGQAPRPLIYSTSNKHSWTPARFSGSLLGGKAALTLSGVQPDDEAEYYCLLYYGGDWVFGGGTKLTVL	percentage binding	3.04%
A-011 (human IgG1 format) (antibody, V domains shown, human IgG1 format) VH: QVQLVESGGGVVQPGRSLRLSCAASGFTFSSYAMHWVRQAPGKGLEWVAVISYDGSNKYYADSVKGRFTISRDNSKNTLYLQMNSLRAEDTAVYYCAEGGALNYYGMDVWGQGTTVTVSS VL: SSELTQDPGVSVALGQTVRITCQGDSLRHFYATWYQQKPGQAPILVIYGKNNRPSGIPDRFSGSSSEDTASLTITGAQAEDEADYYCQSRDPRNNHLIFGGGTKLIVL	percentage binding	4.86%
A-012 (human IgG1 format) (antibody, V domains shown, human IgG1 format) VH: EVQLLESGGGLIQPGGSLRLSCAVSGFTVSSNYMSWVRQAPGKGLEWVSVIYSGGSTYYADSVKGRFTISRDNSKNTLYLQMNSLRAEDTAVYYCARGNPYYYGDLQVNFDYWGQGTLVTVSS VL: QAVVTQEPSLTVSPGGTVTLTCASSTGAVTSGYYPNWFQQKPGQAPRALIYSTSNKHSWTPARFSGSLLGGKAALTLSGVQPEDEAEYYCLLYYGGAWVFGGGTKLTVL	percentage binding	3.93%

# input // Input: A-026 (human IgG1 format) (antibody, V domains shown, human IgG1 format) VH: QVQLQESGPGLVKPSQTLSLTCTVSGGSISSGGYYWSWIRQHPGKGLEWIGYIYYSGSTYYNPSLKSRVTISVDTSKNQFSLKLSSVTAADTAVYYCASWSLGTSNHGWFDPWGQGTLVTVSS VL: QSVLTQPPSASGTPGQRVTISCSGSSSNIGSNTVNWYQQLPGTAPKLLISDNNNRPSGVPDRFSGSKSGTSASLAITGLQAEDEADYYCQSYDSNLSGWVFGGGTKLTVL . Output its percentage binding only.
# output 3.47%
